# maps each entry to its β-Arrestin assay % activation
Molecular target: MRGPRX2 (Homo sapiens, UniProt Q96LB1)
Sequence (Q96LB1 1-330): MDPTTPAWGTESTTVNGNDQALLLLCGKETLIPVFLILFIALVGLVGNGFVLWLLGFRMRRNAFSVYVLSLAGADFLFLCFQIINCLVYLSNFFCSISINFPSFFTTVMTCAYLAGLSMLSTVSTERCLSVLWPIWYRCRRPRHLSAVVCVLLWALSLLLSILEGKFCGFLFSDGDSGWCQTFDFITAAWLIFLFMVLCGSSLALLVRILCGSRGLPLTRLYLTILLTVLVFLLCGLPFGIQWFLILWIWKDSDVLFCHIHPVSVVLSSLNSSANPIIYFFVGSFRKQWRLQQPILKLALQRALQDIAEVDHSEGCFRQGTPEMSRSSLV
Assay: β-arrestin assay (agonist mode), β-arrestin CHO cells recombinantly expressing MRGPRX2
Assay type: cell-based
Details: normalized to CST-14 (EC80 5,000 nM)
Please give the number followed by its unit.

# input Lookup: β-Arrestin assay % activation / MRGPRX2 (Homo sapiens, UniProt Q96LB1) / CCCc1[nH]c2nc3ccccc3n2c(=O)c1CC [Compound 8]
# output -1%

# input Try this compound too: CCc1c(C(C)C)[nH]c2nc3ccc(C)cc3n2c1=O [Compound 28]
# output -3%

# input Try this compound too: CCc1c(C(C)C)[nH]c2nc3cc(Br)c(Br)cc3n2c1=O [Compound 26]
# output -1%
